Data origin: ChEMBL document CHEMBL1201862

Known GI50 of a selection of compounds
tested on: OVCAR-8; test: NCI tumour cell line growth inhibition, 48 h
Activity calls are given as the source filed them. No stated cut-off is given here; in the data, active = GI50 up to about 1.1 µM and inactive = higher.
reported metric: GI50

>>> value_reported("CC(C)CC(=O)NC(C(=O)NC(C(=O)NC(CC(C)C)C(O)CC(=O)NC(C)C(=O)NC(CC(C)C)C(O)CC(=O)O)C(C)C)C(C)C (stereo not drawn)")
"> 100 µM (inactive)"
>>> value_reported("COc1ccc2c(c1)Cc1c-2[nH]c2cc3c(cc2c1=O)OCO3")
"19.1 µM (inactive)"
>>> value_reported("CC(=O)C1=C(N=[N+]=[N-])c2cccc3cccc(c23)C1=O")
"23.6 µM (inactive)"
>>> value_reported("COc1ccc(C(=O)Nc2ccccc2C#N)cc1")
"> 100 µM (inactive)"
>>> value_reported("CC/N=C(/C#N)NCC")
"> 100 µM (inactive)"
>>> value_reported("Cc1ccc(I)cc1N=C=S")
"38.4 µM (inactive)"
>>> value_reported("Cc1ccc(S(=O)(=O)OC2CCN(C)CC2)cc1")
"> 100 µM (inactive)"
>>> value_reported("O=C1Cc2c(-c3ccccc3)cc(-c3ccc4ccccc4c3)nc2-c2ccccc2N1")
"1.46 µM (inactive)"
>>> value_reported("COc1cc2c3cc1Oc1c(OC)c(OC)cc4c1C(Cc1ccc(O)c(c1)-c1cc(ccc1OC)CC3N(C)CC2)N(C)CC4 (stereo not drawn)")
"17.4 µM (inactive)"
>>> value_reported("Cc1cn([C@H]2C[C@H](O)[C@@H](CO)O2)c(=O)nc1N")
"> 100 µM (inactive)"
>>> value_reported("C/C(=N\\NC(N)=S)c1ccc(C)cc1C")
"> 100 µM (inactive)"
>>> value_reported("O=C(NC(=S)Nc1ccccc1)c1ccc([N+](=O)[O-])cc1")
"> 100 µM (inactive)"
>>> value_reported("c1ccc(OC2=NC3=S(S2)SC(Oc2ccccc2)=N3)cc1")
"22.2 µM (inactive)"

----------
Known GI50 of a selection of compounds
test system: UACC-257; assay: NCI tumour cell line growth inhibition, 48 h
Calls of active or inactive are those of the source. Rule as the data show it: active = GI50 up to about 1.1 µM and inactive = higher.
reported metric: GI50

>>> value_reported("CC1=C(C(=O)NNC(=O)Cc2ccccc2)CC(C(=O)NNC(=O)Cc2ccccc2)=C(C)N1")
"> 100 µM (inactive)"
>>> value_reported("N=C(N)N/N=C/c1c(-c2ccc([N+](=O)[O-])cc2)nc2n1CCS2")
"18.5 µM (inactive)"
>>> value_reported("O=C(O)C1CCC(=O)N1C(=O)C(Cl)c1ccccc1 (centres undefined)")
"> 100 µM (inactive)"
>>> value_reported("O=C1c2ccccc2C(=O)c2c(NC(=O)c3ccc4c5c(ncnc35)-c3ccccc3C4=O)cccc21")
"> 100 µM (inactive)"
>>> value_reported("CSC(C1c2ccccc2N(c2ccc(C)cc2)c2[nH]c(=O)n(C)c(=O)c21)S(=O)(=O)c1ccc(C)cc1 (centres undefined)")
"> 100 µM (inactive)"
>>> value_reported("CCCCCCCCCCCCCCCCCC(CCCCCCCCCCCCCCCCC)OP(=O)(O)O")
"> 100 µM (inactive)"
>>> value_reported("CO[C@H]1O[C@@H]2CO[C@@H](c3ccccc3)O[C@H]2[C@@H]2CC=CCC[C@]12O")
"35.6 µM (inactive)"
>>> value_reported("Cc1cc2c(O)nc(N)nc2nc1C")
"> 100 µM (inactive)"
>>> value_reported("Cc1ccc2c(c1)c(=O)c1c(NCCN(C)C)ccc3nnn2c31")
"3.6 µM (inactive)"
>>> value_reported("O=C1Nc2ccccc2/C1=N\\c1cccc2ncccc12")
"41 µM (inactive)"
>>> value_reported("COC(=O)C1=C(O)C(C(=O)OC)[C@]2(O)[C@H](C(=O)OC)[C@H]1C[C@@H](c1c(Cl)cccc1Cl)[C@H]2C(=O)OC (some centres undefined)")
"2.08 µM (inactive)"
>>> value_reported("COC(=O)NC1(NC(=O)OC)NC(=O)c2cc(OC)c(OC)cc2N1")
"45 µM (inactive)"
>>> value_reported("CC(C)CC(=O)NC(C(=O)NC(C(=O)NC(CC(C)C)C(O)CC(=O)NC(C)C(=O)NC(CC(C)C)C(O)CC(=O)O)C(C)C)C(C)C (centres undefined)")
"> 100 µM (inactive)"
>>> value_reported("C#Cc1ccccc1N1C(=O)C=CC1=O")
"> 100 µM (inactive)"
>>> value_reported("CC#COP(=O)(OCC)OCC")
"> 100 µM (inactive)"
>>> value_reported("Cc1cccc(C)c1N1C(=O)C(=O)C(c2nc3ccccc3s2)/C(=N\\N)C1=O (centres undefined)")
"> 100 µM (inactive)"
>>> value_reported("Cc1cc(C)c2c(=N)c3ccccc3n(CCCCCCCCn3c4ccccc4c(=N)c4c(C)cc(C)nc43)c2n1")
"1.75 µM (inactive)"
>>> value_reported("COc1cccc(Cc2cc(=O)c3ccc(C)nc3[nH]2)c1")
"> 100 µM (inactive)"
>>> value_reported("COC(=O)C1=C(OC)C(=P2(c3ccccc3)CC(c3ccccc3)=C2c2ccccc2)C(C(=O)OC)=C1C(=O)OC (centres undefined)")
"> 71.1 µM (inactive)"
>>> value_reported("CCCC1=C(OC)C(=O)c2c(C)cc(Cl)nc2C1=O")
"6.53 µM (inactive)"
>>> value_reported("COc1ccc(CNc2nc3ccc(C(F)(F)F)cc3nc2-c2ccccc2)cc1OC")
"25.2 µM (inactive)"
>>> value_reported("OC1c2[nH]c3ccccc3c2CCN2CCCCC12 (centres undefined)")
"> 100 µM (inactive)"
>>> value_reported("C#CCNC(=O)NCCCC(NC(C)=O)C(=O)NCc1ccccc1 (centres undefined)")
"> 100 µM (inactive)"
>>> value_reported("COC(=O)C1=C(C(=O)OC)C23CC1C1C(C(=O)OC)=C(C(=O)OC)C12C1C=CC3C2C(=O)OC(=O)C21 (centres undefined)")
"45.2 µM (inactive)"
>>> value_reported("Cc1cc(NCCCCCCNc2cc(C)nc3cc(N(C)C)ccc23)c2ccc(N(C)C)cc2n1")
"31.6 µM (inactive)"
>>> value_reported("CN1CCN(c2nc(N)c(Br)c(Cl)n2)CC1")
"> 100 µM (inactive)"
>>> value_reported("N#CCCN(CCC#N)c1ccc(C(=N/c2ccc(Cl)cc2)/N=N/c2ccc(Cl)cc2)cc1")
"15 µM (inactive)"
>>> value_reported("COC(=O)c1cc2ccccc2c2nc3ccccc3c(Cl)c12")
"> 100 µM (inactive)"
>>> value_reported("O=c1[nH]c2nccn2c(Cl)c1Br")
"16.4 µM (inactive)"
>>> value_reported("CC(/C=N/N=C1NCCCCN1)=N\\N=C1NCCCCN1")
"47.6 µM (inactive)"
>>> value_reported("CCOC(=O)C#Cc1cccc(C#CC(=O)OCC)c1")
"10.2 µM (inactive)"
>>> value_reported("O=C1CCSc2nc(-c3ccc4c(c3)OCO4)nn21")
"> 10 µM (inactive)"
>>> value_reported("O=C(C#Cc1ccccc1)C1=Cc2ccccc2OC1")
"2.7 µM (inactive)"
>>> value_reported("O=C(NC(=S)Nc1ccccc1)c1ccc([N+](=O)[O-])cc1")
"60.3 µM (inactive)"
>>> value_reported("C=C(CCC(=O)N(CCc1c[nH]c2ccccc12)C(=O)c1ccccc1CSCC)C(=O)OC")
"35.3 µM (inactive)"
>>> value_reported("Clc1cc(-c2csc(Cl)c2)cs1")
"> 100 µM (inactive)"
>>> value_reported("CCOC(=O)c1c(C)cc(=O)n2c1[nH]c1ccccc12")
"> 100 µM (inactive)"
>>> value_reported("CCOC(=O)C1(NC(=O)OC(C)(C)C)CCc2[nH]oc(=O)c2C1 (centres undefined)")
"> 100 µM (inactive)"
>>> value_reported("Nc1ccn(CCO)c(=O)n1")
"> 100 µM (inactive)"
